- tested_on: ligand binding domain of human ROR gamma (Homo sapiens, UniProt P51449)
- Construct: NM_001001523; expressed in transfected cells; host or cells: HEK293T
- assay_explanation: ROR gamma reporter gene assay (GAL4-RORγ LBD luciferase, Dual-Glo)
- Type: cell-based
- experimental_conditions: HEK293T cells transfected with pM-ROR gamma, 8 concentrations 3.5 nM to 10.5 μM, 24 h incubation; read-out: result (pIC50, inhibition of RORγ transcriptional activity) (converted)
readout_name: IC50 (pM)
Answer in pM, number only, no unit symbol.

>>> experimental_result("O=C(CN(Cc1ccc(F)cc1)C(=O)c1cnn([C@H]2CC[C@H](C(=O)O)CC2)c1C(F)(F)F)c1c(Cl)cncc1Cl")
24000
>>> experimental_result("O=C(CN(CC1CCC1)C(=O)c1cnn([C@H]2CC[C@H](C(=O)O)CC2)c1C(F)(F)F)c1c(Cl)cncc1Cl")
195000

Shift focus to the following entry.
ligand binding domain of human ROR gamma (Homo sapiens, UniProt P51449) / IC50 / O=C(CN(CC1CC1)C(=O)c1cnn([C@H]2CC[C@H](C(=O)O)CC2)c1C(F)(F)F)c1c(Cl)cncc1Cl : value?
1.32e+06

----------
- tested_on: ligand binding domain of human ROR gamma (Homo sapiens)
- Construct: NM_001001523; expressed in transfected cells; host or cells: HEK293T
- Sequence (P51449 247-497 isoform P51449-2): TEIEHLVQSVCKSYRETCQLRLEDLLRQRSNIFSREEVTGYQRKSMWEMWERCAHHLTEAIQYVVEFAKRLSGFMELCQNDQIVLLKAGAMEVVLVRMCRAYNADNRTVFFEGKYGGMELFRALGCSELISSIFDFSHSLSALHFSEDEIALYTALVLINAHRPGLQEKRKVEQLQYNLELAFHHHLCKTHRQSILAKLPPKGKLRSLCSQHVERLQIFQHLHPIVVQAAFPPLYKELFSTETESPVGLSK
- assay_explanation: ROR gamma reporter gene assay (GAL4-RORγ LBD luciferase, Dual-Glo)
- Type: cell-based
- experimental_conditions: HEK293T cells transfected with pM-ROR gamma, 8 concentrations 3.5 nM to 10.5 μM, 24 h incubation; read-out: result (pIC50, inhibition of RORγ transcriptional activity) (converted)
readout_name: IC50

For orientation, consider the following solved cases.
>>> experimental_result("CC1(O)CCC(CN(CC(=O)c2c(Cl)cncc2Cl)C(=O)c2cnn([C@H]3CC[C@H](C(=O)O)CC3)c2C(F)(F)F)CC1 (stereo partly drawn)")
"> 1e+07 pM"
>>> experimental_result("O=C(O)c1cc(Cl)c(C(=O)CN(Cc2cc(F)cc(F)c2)C(=O)c2cnn([C@H]3CC[C@H](C(=O)O)CC3)c2C(F)(F)F)c(Cl)c1")
"> 1e+07 pM"

Shift focus to the following entry.
ligand binding domain of human ROR gamma (Homo sapiens) / IC50 / O=C1CC[C@@H](CN(CC(=O)c2c(Cl)cncc2Cl)C(=O)c2cnn([C@H]3CC[C@H](C(=O)O)CC3)c2C(F)(F)F)N1 : value?
> 1e+07 pM

----------
Listed below: IC50 values for each entry.
- tested_on: ligand binding domain of human ROR gamma (Homo sapiens, UniProt P51449)
- Construct: NM_001001523; expressed in transfected cells; host or cells: HEK293T
- Sequence (P51449 247-497 isoform P51449-2): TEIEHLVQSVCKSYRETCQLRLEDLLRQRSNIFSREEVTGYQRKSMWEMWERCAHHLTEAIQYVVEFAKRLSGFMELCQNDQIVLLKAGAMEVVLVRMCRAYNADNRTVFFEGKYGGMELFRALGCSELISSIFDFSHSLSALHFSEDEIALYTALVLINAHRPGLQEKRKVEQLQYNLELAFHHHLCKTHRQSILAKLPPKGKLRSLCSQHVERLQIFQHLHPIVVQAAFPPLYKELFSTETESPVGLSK
- assay_explanation: ROR gamma reporter gene assay (GAL4-RORγ LBD luciferase, Dual-Glo)
- Format: cell-based
- experimental_conditions: HEK293T cells transfected with pM-ROR gamma, 8 concentrations 3.5 nM to 10.5 μM, 24 h incubation; read-out: result (pIC50, inhibition of RORγ transcriptional activity) (converted)
Answer in pM, number only, no unit symbol.

>>> experimental_result("O=C(c1cnn([C@H]2CC[C@H](C(=O)O)CC2)c1C(F)(F)F)N(Cc1cc(F)cc(F)c1)CC(F)(F)c1c(Cl)cncc1Cl [Example 10]")
25700
>>> experimental_result("O=C(CN(C(=O)c1cnn([C@H]2CC[C@H](C(=O)O)CC2)c1C(F)(F)F)[C@H]1C[C@@H]1c1ccccc1)c1c(Cl)cncc1Cl [Example 161]")
"2.19e+06"
>>> experimental_result("N#Cc1cc(Cl)c(C(=O)CN(Cc2cc(F)cc(F)c2)C(=O)c2cnn([C@H]3CC[C@H](C(=O)O)CC3)c2C(F)(F)F)c(Cl)c1 [Example 58]")
135000

Entry CONC(=O)[C@H]1CC[C@H](n2ncc(C(=O)N(CC(=O)c3c(Cl)cncc3Cl)Cc3cc(F)cc(F)c3)c2C(F)(F)F)CC1 [Example 6] : reported IC50 = ?
87100

----------
- tested_on: ligand binding domain of human ROR gamma (Homo sapiens, UniProt P51449)
- Construct: NM_001001523; expressed in transfected cells; host or cells: HEK293T
- assay_explanation: ROR gamma reporter gene assay (GAL4-RORγ LBD luciferase, Dual-Glo)
- Format: cell-based
- experimental_conditions: HEK293T cells transfected with pM-ROR gamma, 8 concentrations 3.5 nM to 10.5 μM, 24 h incubation; read-out: result (pIC50, inhibition of RORγ transcriptional activity) (converted)
Listed below: IC50 values for each entry.

>>> experimental_result("O=C(CN(Cc1cc(F)cc(F)c1)C(=O)c1cnn(C2CCC(C(=O)O)CC2)c1C(F)(F)F)c1c(O)cccc1O (centres unmarked)")
"> 1e+07 pM"
>>> experimental_result("O=C(CN(Cc1cc(F)cc(F)c1)C(=O)c1cnn([C@H]2CC[C@H](C(=O)O)CC2)c1C(F)(F)F)c1ccc(O)cc1")
"> 1e+07 pM"
>>> experimental_result("CC(=O)N1CC(N(CC(=O)c2c(Cl)cncc2Cl)C(=O)c2cnn([C@H]3CC[C@H](C(=O)O)CC3)c2C(F)(F)F)C1")
"> 1e+07 pM"
>>> experimental_result("O=C1CC[C@H](CN(CC(=O)c2c(Cl)cncc2Cl)C(=O)c2cnn([C@H]3CC[C@H](C(=O)O)CC3)c2C(F)(F)F)N1")
"> 1e+07 pM"

Entry CC12CCC(CN(CC(=O)c3c(Cl)cc(Cl)cc3Cl)C(=O)c3cnn([C@H]4CC[C@](C)(C(=O)O)CC4)c3C(F)(F)F)(CC1)C2 : reported IC50 = ?
< 3470 pM

----------
Listed below: log10 IC50 values for each entry.
- tested_on: human RORγ-LBD (Homo sapiens)
- Construct: made in house; host or cells: E. coli (BL-21)
- assay_explanation: ROR gamma coactivator peptide recruitment Alphascreen assay (RORγ-LBD binding to GRIP1 coactivator peptide)
- Format: biochemical
- experimental_conditions: 5 nM human RORγ-LBD, 30 nM 7-β-hydroxycholesterol, 50 nM biotinylated GRIP1 coactivator peptide, overnight incubation at room temperature; read-out: result (pIC50, RORγ coactivator peptide recruitment Alphascreen assay) (converted)
- Text: Alphascreen™ is a bead-based amplified homogenous luminescent proximity assay that can be used for measuring the effect of compounds on protein-protein interactions. When biological interactions bring donor and acceptor beads into close proximity, reactive oxygen, generated upon laser excitation of the donor beads, initiates a luminescence/fluorescence cascade in the acceptor beads that leads to a highly amplified signal that can be measured as light in the 520-620 nm range. […]
Form field - Quantity: IC50; Unit: nM; Scale: log10

For orientation, consider the following solved cases.
>>> experimental_result("C[C@]1(C(=O)O)CC[C@H](n2ncc(C(=O)N(CC(=O)c3c(Cl)cc(F)cc3Cl)CC3CCCCC3)c2C(F)(F)F)CC1")
0.16
>>> experimental_result("CCC(CC)(CC)CN(CC(=O)c1c(Cl)cncc1Cl)C(=O)c1cnn([C@H]2CC[C@](C)(C(=O)O)CC2)c1C(F)(F)F")
0.60
>>> experimental_result("COc1cccc(F)c1C(=O)CN(C(=O)c1cnn([C@H]2CC[C@](C)(C(=O)O)CC2)c1C(F)(F)F)C1CCC(C)(C)CC1")
2.02
>>> experimental_result("Cc1cc(Cl)c(C(=O)CN(C[C@@]2(C)CCCO2)C(=O)c2cnn([C@H]3CC[C@](C)(C(=O)O)CC3)c2C(F)(F)F)c(Cl)c1 [Example 726]")
0.44
>>> experimental_result("C[C@@H]1C[C@H](n2ncc(C(=O)N(CC(=O)c3c(Cl)cncc3Cl)CC(C)(C)C)c2C(F)(F)F)CC[C@H]1C(=O)O [Example 793]")
1.40

Shift focus to the following entry.
Entry O=C(c1cnn([C@H]2CC[C@H](C(=O)O)CC2)c1C(F)(F)F)N(CCc1ccccc1Cl)Cc1ccc(Cl)cc1 : reported log10 IC50 = ?
1.18
